System: HOP-92 NSCLC
Test: NCI tumour cell line growth inhibition, 48 h
# TGI per entry
Supply the numeric figure in µM, leaving out any unit text.

Consider the worked cases shown below.
| molecule | system-under-test | TGI [µM] |
| --- | --- | --- |
| Clc1ccc(C2CC(c3cccc(Nc4ccncc4)c3)=NN2c2ccc(Cl)cc2)cc1 (centres undefined) | HOP-92 NSCLC | 2.79 |
| c1csc(-c2nccc3c2[nH]c2ccccc23)c1 | HOP-92 NSCLC | 41.5 |
| O=[N+]([O-])c1ccc(-n2nc3ccc4c(no[n+]4[O-])c3[n+]2[O-])c([N+](=O)[O-])c1 | HOP-92 NSCLC | 8.02 |
| O=c1c2ccccc2[nH]c2c(O)ccc(O)c12 | HOP-92 NSCLC | 34.5 |
| N#Cc1ccc(-c2c(-c3ncn[nH]3)sc(N3CCOCC3)c2C#N)c(F)c1 | HOP-92 NSCLC | 0.973 |

**Query** Recorded TGI of O=[N+]([O-])C1=Cc2cc(Cl)ccc2OC1c1cccc2ccccc12 (centres undefined) , please.
**Result** 3

**Query** Which measured TGI value corresponds to CN(CCNC(=O)c1c[nH]c2c1ccc1ccccc12)CCNC(=O)c1c[nH]c2c1ccc1ccccc12 ?
**Result** 7.2

---

Tested on: SF-539 CNS
Assay: NCI tumour cell line growth inhibition, 48 h
endpoint: TGI

Answered cases to consult:
| compound | TGI |
| --- | --- |
| COc1ccc(C2C(C#N)=C(S)N(C3OC(COC(C)=O)C(OC(C)=O)C(OC(C)=O)C3OC(C)=O)C(C)=C2C(C)=O)cc1 (stereo not given) | > 100 µM |
| CCCCN(CCCC)CCC(O)c1cc(-c2ccc(C(F)(F)F)cc2)nc(-c2ccc(C(F)(F)F)cc2)c1 (stereo not given) | > 100 µM |
| CCCCCCCCOCC(O)CO (stereo not given) | > 100 µM |
| C[C@@H]1[C@H](O)CC2=C(CC[C@@H](O)C2(C)C)[C@@]1(CO)CCc1ccoc1 | > 50 µM |
| Cc1ccc(S(=O)(=O)NC(=O)Nc2cccc(S(N)(=O)=O)c2)cc1 | > 100 µM |
| Cc1c(O)c(OC2OC(CO)C(O)C(O)C2O)cc2c1CC[C@@H]1C2(C)C(=O)C[C@]2(C)[C@@H]([C@@](C)(O)C3CCC(C)(C)O3)[C@H](O)C[C@@]12C (stereo not given in full) | > 100 µM |

**Query** Param item = N#Cc1c(-c2ccccc2)cc(-c2ccc(N)cc2)[nH]c1=O ; retrieve measured TGI.
**Result** > 100 µM

**Query** Quick one: TGI for CC[C@H](C)C1=C(OC(C)=O)[N@+]2([O-])Oc3ccc(-c4c(O)c(O)c(-c5ccc(OC(C)=O)cc5)c(OC(C)=O)c4OC(C)=O)cc3O[C@]2([C@@H](C)CC)C(=O)N1O ?
**Result** > 50 µM

**Query** Tell me the measured TGI of CCc1c2cc(OC)c(OC)cc2cc2c3cc(OC)c(OC)cc3cc[n+]12 (tested in a mixture with another compound) , please.
**Result** > 94.9 µM

**Query** Please look up its TGI: NC(=O)CN1CC(C2=C(O)CN(CC(N)=O)C2=O)=CC1=O
**Result** > 100 µM

**Query** Fill in the blank: the reported TGI of COc1ccc2c3c([nH]c(=O)c2c1C(=O)O)-c1ccccc1CC3 is ____.
**Result** > 100 µM

**Query** Quick one: TGI of C[C@@H](CC(=O)O)OC1OC(COC(=O)C(C)(C)C)C(OC(=O)C(C)(C)C)C(OC(=O)C(C)(C)C)C1OC(=O)C(C)(C)C (stereo not given in full) ?
**Result** > 100 µM

**Query** Which value of TGI has been reported for Nc1nonc1-c1nc2ccccc2n1Cc1ccc(F)cc1 in the records?
**Result** > 100 µM

**Query** What does the data say about its TGI? Entry: [N-]=[N+]=NC1(c2ccccc2)C(=O)C(Cl)=C(c2ccccc2)N(c2ccccc2)C1=O (stereo not given)
**Result** > 100 µM

**Query** Any idea what its TGI is? The compound is CCO/S(=N/S(=O)(=O)c1ccccc1)c1ccccc1[N+](=O)[O-] (stereo not given)
**Result** > 100 µM

FYI, the data here is from PubChem BioAssay (NCI).
